# Test system: NCI-H522 lung
# assay.details: NCI tumour cell line growth inhibition, 48 h
# GI50 annotations

molecule | GI50
Cc1ccc(C(=O)N=Nc2c(O)[nH]c3ccc(Cl)cc23)cc1 | 20.2 µM
CN(C)c1ccc(C(=C2C=CC(=[N+](C)C)C=C2)c2ccccc2Cl)cc1 | 0.268 µM
C[C@]12CCc3sc(-c4cccc(F)c4)nc3C1=CC[C@@H]1[C@@H]2CC[C@]2(C)C(=O)CC[C@@H]12 | 2.4 µM
O=C(Nc1cccc(-n2cc(-c3ccncc3)c(-c3ccc(O)c(Cl)c3)n2)c1)c1ccc(Cl)c(Cl)c1 | 4.13 µM

###

# Test system: OVCAR-3 ovarian
# assay.details: NCI tumour cell line growth inhibition, 48 h
# TGI annotations

molecule | TGI
Cc1nnc([C@@]2(C)CC[C@H]3[C@@H](CCC4=CC(=O)CC[C@@]43C)[C@@H]2CC#N)o1 | > 100 µM
COc1ccc(-c2nc(-c3nc4ccc(C(F)(F)F)cc4[nH]3)c3ccccn23)cc1 | > 100 µM
Cc1cc(C)c2c(=O)cc(-c3ccc4ccccc4c3)[nH]c2n1 | > 100 µM
COc1ccc(Oc2cc(NCCC(F)(F)F)c3ncc(-c4ccc(C(=O)NC5CC5)c(C)c4)n3n2)c(F)c1F | > 91.9 µM

###

# Tested on: MOLT-4 leukemia
# assay.details: NCI tumour cell line growth inhibition, 48 h
Where a SMILES comes first, the peptide text is derived from it. The star is where a group is joined. Cbz = O=C(OCc1ccccc1)*
observable: TGI

molecule | observable | measured.value
CCOC(=O)CNC(=O)C(C)NC(=O)C(NC(=O)OCc1ccccc1)C(C)C (stereo not drawn) (Cbz-Val-Ala-Gly-OEt; configuration not given here) | TGI | > 100 µM
O=[N+]([O-])c1ccc(COc2cccc3cccnc23)cc1 | TGI | 31.4 µM
Brc1ccc(-c2cc(-c3ccc4c(c3)OCO4)c(-c3cccs3)n2Cc2ccccc2)cc1 | TGI | > 100 µM
O=C(c1ccccc1)c1nn(-c2ccccc2)c2nc3nc(-c4ccccc4)cc(=O)n3nc12 | TGI | 49.3 µM
CC(C)(C)OC(=O)NCCCCCCCCCCn1c2c(c3ccccc3c1=O)C(=O)c1ccccc1-2 | TGI | 31.2 µM
Cc1c(-c2ccc(O)c(O)c2)oc(=O)c2c(O)cccc12 | TGI | > 100 µM
COc1cc(Nc2nc3ccccc3nc2C(C)C)cc(OC)c1OC | TGI | > 100 µM
FC(F)(F)c1[nH]ncc1-c1nc2ccc3[nH]ncc3c2c2c1CCCC2 | TGI | 5.29 µM
Nc1ccc(OCCCc2c(-c3ccccc3)nc(N)[nH]c2=O)cc1 | TGI | > 100 µM
O=c1cc(O)c2c(O)cc(O)cc2o1 | TGI | > 100 µM
CC1(C)CC(=O)c2c(ccc(C(=O)C[C@@H](N)CO)c2N)O1 | TGI | > 37.4 µM
Cc1nn(-c2ccccc2)c2nc3ccc(Cl)cc3c(-c3ccccc3)c12 | TGI | > 100 µM

###

# Tested on: TK-10 renal
# assay.details: NCI tumour cell line growth inhibition, 48 h
# TGI annotations

compound | TGI
Cc1ncc(-c2ccnc(Nc3ccc(S(C)(=O)=O)cc3)n2)n1C(C)C | > 10 µM
COc1ccc(/C=C(/c2ccccc2)c2c(C)cc(C)c(/C(=C\c3ccc(OC)cc3)c3ccccc3)c2N=Nc2cc(C)cc(C)c2)cc1 | > 74.4 µM
Nc1ncnc2nn(C3OC(CO)C(O)C3O)nc12 (configuration not stated) | > 35.4 µM
Cc1nc2ccccc2c(=O)n1/N=C/c1ccc(N(C)C)cc1 | > 100 µM
CC(OC(=O)N(N(CCCl)S(C)(=O)=O)S(C)(=O)=O)c1ccc([N+](=O)[O-])cc1 (configuration not stated) | > 100 µM
Cc1nc2ccccc2n1Cc1nnc2n1N=C(c1ccccc1)CS2 | > 100 µM
CCN1C(=O)N(CC)C2C1NN=c1s/c(=C\c3cccc([N+](=O)[O-])c3)c(=O)n12 (configuration not stated) | > 100 µM
COc1cc(Nc2nc3ccccc3nc2C(C)C)cc(OC)c1OC | > 100 µM
Cc1ccc2c(CC(=O)O)cc(=O)oc2c1 | > 100 µM
COC(=O)C1=COc2c(n(C)c3ccccc23)-c2ccccc21 | > 100 µM
S=C(c1c[nH]c2ccccc12)N1CCCCC1 | > 100 µM
COc1cccc(C=C2N=C(C)N(n3c(-c4ccccc4)nc4ccccc4c3=O)C2=O)c1 | > 100 µM
CC/C(CC(=O)CCC(=O)Nc1ccc(C)c(C)c1)=N\NC(=O)C(N)=O | > 100 µM
NC(=O)C1CCCN1C(=O)N(CCCl)N=O (configuration not stated) | > 100 µM
CC(=O)c1ccccc1NS(=O)(=O)c1ccc2nc(C)n(NS(=O)(=O)c3ccccc3C(C)=O)c(=O)c2c1 | > 100 µM
Oc1ccccc1-c1nn2c(CCCCCCCCc3nnc4sc(-c5ccccc5O)nn34)nnc2s1 | > 100 µM
CCOC(=O)N1N(c2ccccc2)C(=O)C1(c1ccccc1)c1ccccc1 | > 100 µM

###

# Tested on: HS 578T breast
# assay.details: NCI tumour cell line growth inhibition, 48 h
# TGI annotations

compound | readout.qualifier | TGI (µM)
COc1ccc(Oc2cc(NCCC(F)(F)F)c3ncc(-c4ccc(C(=O)NC5CC5)c(C)c4)n3n2)c(F)c1F | = | 50.6
COc1ccc2[nH]c(O)c(/C=c3/ccc4c(c3)N=C(c3ccc(F)cc3)N=4)c2c1 | = | 9.4
CCCCN1C(=O)CS/C1=N/Nc1nc2c([nH]1)c(=O)n(C)c(=O)n2C | > | 100
NC(CO)C(=O)NCC(=O)O (stereo unspecified) | > | 100
O[C@H]1[C@H](O)[C@@H](Cn2nnc(-c3ccccc3)c2-c2ccccc2)OCO[C@@H]1Cn1nnc(-c2ccccc2)c1-c1ccccc1 | = | 33.2
C=CCn1c(-c2ccc(Cl)cc2Cl)csc1=Nc1c(C)n(C)n(-c2ccccc2)c1=O | = | 44.7
CCc1ncnc2cc(OCC3CO3)c(OC)cc12 (stereo unspecified) | = | 42
Nc1nc(-c2cc(-c3cccc4ccccc34)nc(N)n2)cc(-c2cccc3ccccc23)n1 | > | 100
CNc1nc2c(C)ccc3[nH]c(N(C)C)nc3c-2n1 | > | 100
CC(OC(=O)N(N(CCCl)S(C)(=O)=O)S(C)(=O)=O)c1ccc([N+](=O)[O-])cc1 (stereo unspecified) | > | 92
COCn1c(C)c(C)c2c(=O)oc(C)nc21 | > | 100

###

# Test system: A498 renal
# assay.details: NCI tumour cell line growth inhibition, 48 h
# TGI annotations

compound | TGI
CCOP(=O)(CC(=O)C1=C(O)C(CCCCNC(=O)OC(C)(C)C)N(Cc2ccccc2)C1=O)OCC (stereo unspecified) | > 100 µM
CC(C)(SCc1ccccc1)C(N)C(=O)O (stereo unspecified) | > 100 µM
O=C(NC(=O)c1cc2cc(Br)cc(Br)c2oc1=O)Oc1ccccc1 | > 100 µM
O=S(=O)(NCCO)c1cc[c]([Sb](=[O])([OH])[OH])cc1 | > 100 µM
CSc1nc(N)c2c(n1)NC(c1ccccc1)C1CCc3ccccc3C1=N2 (stereo unspecified) | > 100 µM
CCOC(=O)c1nc2cc(C(F)(F)F)ccc2[n+]([O-])c1C | > 100 µM

###

# Test system: SNB-75 CNS
# assay.details: NCI tumour cell line growth inhibition, 48 h
# TGI annotations

compound | TGI
CSc1ccc2c(cc1=O)[C@@H](NC(=O)c1ccc([N+](=O)[O-])cc1)CCc1cc(O)c(O)c(O)c1-2 | > 100 µM
COC(=O)C(=O)C(CC(=O)Nc1cccc(C(F)(F)F)c1)C(=O)OC (stereo unspecified) | > 100 µM
COc1ccc(/C(=N/O)c2cc(OC)c(OC)c(OC)c2)c(OC)c1N | > 100 µM
O=c1[nH]c(=O)n2n1C1C=CC2CC1 | > 100 µM
COc1cc2ccc(CC(N)=O)cc2cc1OC | > 100 µM
CCOC(=O)c1cn2c(ccc3sc4ccccc4c(=O)c32)n1 | > 100 µM
NC(=O)C1N=NSC1NC(=O)c1ccc([N+](=O)[O-])cc1 (stereo unspecified) | > 100 µM
Cc1ccc(S(=O)(=O)N2CCCSCCN(S(=O)(=O)c3ccc(C)cc3)CCCSCC2)cc1 | > 100 µM
O=C(CCc1ccc(O)cc1)NCCCNC(=O)CCc1ccc(O)cc1 | > 100 µM
O=S(=O)(O)c1ccccc1N=Nc1ccc(N=Nc2c(O)ccc3ccccc23)c(S(=O)(=O)O)c1 | > 100 µM
COc1ccc(-c2nc3c(nc2-c2ccc(OC)cc2)N(C)S(=O)(=O)N=C3N)cc1 | > 100 µM
O=C1CCCC[C@H]1C(O)CC1CC(=O)N(c2ccccc2)C(=O)C1 (stereo partly specified) | > 100 µM
CCOC(=O)C1=C(C)NC(C)=C(C(=O)OCC)C1c1ccc(C)cc1 | > 100 µM
O=C1CCC2(c3ccccc3)Nc3ccc(Cl)cc3N12 (stereo unspecified) | > 100 µM
COc1ccc(C#CC2=C(c3cc(OC)c(OC)c(OC)c3)C(=O)OC2)cc1 | > 50 µM
CCCC#CCOC(=O)c1cc([N+](=O)[O-])cc([N+](=O)[O-])c1 | > 100 µM
Cc1ccc(C)c2c(N=Nc3ccccc3[N+](=O)[O-])c(O)[nH]c12 | > 100 µM
O=P1(Oc2ccccc2)NCc2ncccc2O1 (stereo unspecified) | > 100 µM
O=[p+]1c2ccccc2[nH]c2ccccc21 | > 100 µM
Cc1nnc([C@@]2(C)CC[C@H]3[C@@H](CCC4=CC(=O)CC[C@@]43C)[C@@H]2CC#N)o1 | > 100 µM
CCOP(C)(=O)/C(Cc1ccc(OC)c(OC)c1)=N\O (stereo unspecified) | > 100 µM
